test.method.notes: basal RPMI8226 viability, no added stimulus, profiling panel, cell-based, calcein-AM fluorescence, 48 h, PK04 Diversity Set (AID 1166);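 also: cells grown under basal conditions without added stimulus; test concentration not given here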
condition.set: RPMI8226 myeloma viability, higher = more signal
Below: a set of entries, each annotated with reported z-score.
Lab note: jot down the number only; don't add units.

Would you please look over these solved cases?
> print(dat)
                                   compound  readout.value
1  COc1cccc([C@@H]2Oc3ccc(Br)cc3C(=O)[C@H]2O)c1          -1.73
2  CC(C)(C)N1C(=O)[C@H]2[C@H]3[C@H](O)[C@H](O)CC(=NO[C@@H]4O[C@H](CO)[C@@H](O)[C@H](O)[C@H]4O)[C@@H]3CC[C@H]2C1=O         -0.666

Query: Bench note: what z-score did `CC[C@@H](c1ccccc1)n1c(=O)n2n(c1=O)[C@H]1[C@H](O)[C@@H]3O[C@@H]3C(=NOCC(C)C)[C@H]1CC2` show?
Reply: 0.44

Query: Would you kindly share the measured z-score for C[C@@H]1CCC2C(=O)N(Cc3ccccc3)C[C@@H](O)CN2[C@H]1c1ccc(Br)cc1 (some centres not stated) ?
Reply: 0.447

Query: // query z-score value for entry `CCOC(=O)C[C@H]1[C@H](OC(=O)c2ccc(C(=O)c3ccccc3)cc2)[C@@H](NC(=O)c2ccc(-c3ccccc3)cc2)c2cc(OCCCO)ccc2N1C(=O)c1ccc2ccccc2n1`
Reply: 1.08

Query: So what does the record say about z-score for `C=CC[C@@H]1C=C[C@H](ON=C2c3cc(OC)ccc3O[C@H](c3cccc(OC)c3)[C@H]2O)[C@@H](CO)O1` ?
Reply: -0.0859

Query: # get_value(readout='z-score', item= `O=C1C[C@@H](O)[C@@H](O)[C@@H]2[C@@H]3C(=O)N(Cc4ccc5c(c4)OCO5)C(=O)[C@@H]3CC[C@@H]12` )
Reply: -0.205

Data credit: PubChem BioAssay
